# Test system: C. krusei ATCC 6258
# Procedure summary: Anti-Fungal (Candida) Activity Assay, broth microtiter MIC
# Format: cell-based, Candida krusei
# Measurement parameters: Pichia kudriavzevii, ATCC6258, 48 h, Table 3b (additional results); 3 replicates; MIC read at 48 h
Assay metric: MIC

These solved cases illustrate the format of a correct answer.
> print(dat)
                                  structure          test.target           result
1  CCOC(=O)c1sc2c(c1C)c(=O)n(C(C)(C)C(=O)N1CCCC1)c(=O)n2C[C@H](OCCO)c1cc(F)ccc1OC  C. krusei ATCC 6258   2.1 to 4 µg/mL
2  CCNC(=O)C(C)(C)n1c(=O)c2c(C)c(C(=O)OCC)sc2n(C[C@H](O)c2cc(F)ccc2OC)c1=O  C. krusei ATCC 6258  0.25 to 1 µg/mL
3  CCOC(=O)c1sc2c(c1C)c(=O)n(C(C)(C)C(=O)NC(C)C)c(=O)n2C[C@H](OC(C)C)c1ccccc1OC  C. krusei ATCC 6258   2.1 to 4 µg/mL
4  CCOC(=O)c1sc2c(c1C)c(=O)n(C(C)(C)C(=O)NC(C)C)c(=O)n2CCc1cc(F)ccc1OC  C. krusei ATCC 6258   2.1 to 4 µg/mL
5  CCOC(=O)c1sc2c(c1C)c(=O)n(C(C)(C)C(=O)NC(C)C)c(=O)n2C[C@H](OC1CCOCC1)c1ccccc1OC  C. krusei ATCC 6258   2.1 to 4 µg/mL
6  CCOC(=O)c1sc2c(c1C)c(=O)n(C(C)(C)C(=O)N1CCCC1)c(=O)n2C[C@H](OCCC#N)c1cc(F)ccc1OC  C. krusei ATCC 6258   2.1 to 4 µg/mL
7  CCOC(=O)c1sc2c(c1C)c(=O)n([C@H](C)C(=O)N1CCCC1)c(=O)n2C[C@H](OCCC#N)c1cc(F)ccc1OC  C. krusei ATCC 6258   2.1 to 4 µg/mL
8  CCOC(=O)c1sc2c(c1C)c(=O)n(C(C)(C)C(=O)N1CCCCC1)c(=O)n2C[C@H](OC(C)C)c1ccccc1OC  C. krusei ATCC 6258   2.1 to 4 µg/mL

Ask: Looking for the measured MIC of `CCOC(=O)c1sc2c(c1C)c(=O)n(C(C)(C)C(=O)N1CCOCC1)c(=O)n2C[C@H](OC(C)C)c1ccccc1OC` , can you help?
Reply: 2.1 to 4 µg/mL

Ask: Looking for the measured MIC of `CCOC(=O)c1sc2c(c1C)c(=O)n(C(C)(C)C(=O)NC(C)C)c(=O)n2C[C@H](OC[C@H](C)C#N)c1cc(F)ccc1OC` , can you help?
Reply: 2.1 to 4 µg/mL

Ask: Looking for the measured MIC of `CCOC(=O)c1sc2c(c1C)c(=O)n(C(C)(C)C(=O)N1CCCC1)c(=O)n2C[C@H](OC1CCOCC1)c1ccccc1OC` , can you help?
Reply: 2.1 to 4 µg/mL

Ask: Looking for the measured MIC of `CCOC(=O)c1sc2c(c1C)c(=O)n(C(C)(C)C(=O)NC(C)C)c(=O)n2C[C@H](OCCS(C)(=O)=O)c1cc(F)ccc1OC` , can you help?
Reply: 2.1 to 4 µg/mL

Ask: Looking for the measured MIC of `CCOC(=O)c1sc2c(c1C)c(=O)n(C(C)(C)C(N)=O)c(=O)n2C[C@H](OCCOC)c1cc(F)ccc1OC` , can you help?
Reply: 2.1 to 4 µg/mL

Ask: Looking for the measured MIC of `CCNC(=O)[C@H](C)n1c(=O)c2c(C)c(C(=O)OCC)sc2n(C[C@H](OCCC#N)c2cc(F)ccc2OC)c1=O` , can you help?
Reply: 2.1 to 4 µg/mL

Ask: Looking for the measured MIC of `CCOC(=O)c1sc2c(c1C)c(=O)n(C(C)(C)C(=O)NC(C)C)c(=O)n2C[C@H](OCCC#N)c1cc(F)ccc1OC` , can you help?
Reply: 0.25 to 1 µg/mL

Ask: Looking for the measured MIC of `CCOC(=O)c1sc2c(c1C)c(=O)n(C(C)(C)C(=O)NC(C)C)c(=O)n2C[C@H](OCC(C)(C)C#N)c1cc(F)ccc1OC` , can you help?
Reply: 2.1 to 4 µg/mL

Ask: Looking for the measured MIC of `CCOC(=O)c1sc2c(c1C)c(=O)n([C@H](C)C(=O)N(C)C(C)C)c(=O)n2C[C@H](OCCC#N)c1cc(F)ccc1OC` , can you help?
Reply: 0.25 to 1 µg/mL

Ask: Looking for the measured MIC of `CCOC(=O)c1sc2c(c1C)c(=O)n([C@@H](C)C(=O)N(C)C(C)C)c(=O)n2C[C@H](OCCC#N)c1cc(F)ccc1OC` , can you help?
Reply: 0.25 to 1 µg/mL

Ask: Looking for the measured MIC of `CCNC(=O)C(C)(C)n1c(=O)c2c(C)c(C(=O)OCC)sc2n(C[C@H](OCCC#N)c2cc(F)ccc2OC)c1=O` , can you help?
Reply: 2.1 to 4 µg/mL

Ask: Looking for the measured MIC of `CCOC(=O)c1sc2c(c1C)c(=O)n(C(C)(C)C(=O)NC(C)C)c(=O)n2C[C@H](OCC#N)c1cc(F)ccc1OC` , can you help?
Reply: 2.1 to 4 µg/mL

Ask: Looking for the measured MIC of `CCOC(=O)c1sc2c(c1C)c(=O)n([C@@H](C)C(N)=O)c(=O)n2C[C@H](OCCC#N)c1cc(F)ccc1OC` , can you help?
Reply: 1.1 to 2 µg/mL

Ask: Looking for the measured MIC of `CCOC(=O)c1sc2c(c1C)c(=O)n([C@H](C)C(=O)N(C)C(C)C)c(=O)n2C[C@H](OCCO)c1cc(F)ccc1OC` , can you help?
Reply: 0.25 to 1 µg/mL

Ask: Looking for the measured MIC of `CCOC(=O)c1sc2c(c1C)c(=O)n([C@H](C)C(=O)NC(C)C)c(=O)n2C[C@H](OCCC#N)c1cc(F)ccc1OC` , can you help?
Reply: 2.1 to 4 µg/mL

Ask: Looking for the measured MIC of `CCNC(=O)C(C)(C)n1c(=O)c2c(C)c(C(=O)OCC)sc2n(C[C@H](OCCC#N)c2ccccc2OC)c1=O` , can you help?
Reply: 0.25 to 1 µg/mL

Ask: Looking for the measured MIC of `CCOC(=O)c1sc2c(c1C)c(=O)n(C(C)(C)C(=O)N1CCCCC1)c(=O)n2C[C@H](OC1CCOCC1)c1ccccc1OC` , can you help?
Reply: 0.25 to 1 µg/mL

Ask: Looking for the measured MIC of `CCOC(=O)c1sc2c(c1C)c(=O)n(C(C)(C)C(=O)NC(C)C)c(=O)n2C[C@H](O)c1cc(F)ccc1OC` , can you help?
Reply: 0.25 to 1 µg/mL
